# System name: T1, human Nectin-4 extracellular antigen hNectin-4-His (human, UniProt Q96NY8 32-349)
# T1 construct: C-terminal 8xHis tag included
# T1 sequence: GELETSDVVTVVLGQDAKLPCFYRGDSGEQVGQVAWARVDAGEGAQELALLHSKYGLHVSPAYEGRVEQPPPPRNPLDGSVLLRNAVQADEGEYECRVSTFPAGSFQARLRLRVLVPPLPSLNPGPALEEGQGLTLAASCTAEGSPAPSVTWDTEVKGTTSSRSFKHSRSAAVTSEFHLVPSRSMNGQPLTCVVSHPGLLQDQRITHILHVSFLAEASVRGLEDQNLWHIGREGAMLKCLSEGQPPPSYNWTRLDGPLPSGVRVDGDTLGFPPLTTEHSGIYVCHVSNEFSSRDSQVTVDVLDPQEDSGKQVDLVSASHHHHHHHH
# Protocol notes: SPR, antibody on Protein A chip, 1:1 fit
Record form. Attribute: koff. Fill in for each entry.
I only need the number, in s⁻¹, no unit after it.

Task: Name the reported koff value associated with the binder antibody 10F4-2F11 (antibody, human IgG1, kappa, V domains shown) VH: EVQLVESGGGLVQPGGSLRLSCAASGYNFTSYDMSWVRQAPGKGLEWVSGIKTGGGSARYADSVKGRFTISRDNSKNTLYLQMNSLRAEDTAVYYCAREYSDVVDYVSVRTPLDYWGQGTLVTVSS VL: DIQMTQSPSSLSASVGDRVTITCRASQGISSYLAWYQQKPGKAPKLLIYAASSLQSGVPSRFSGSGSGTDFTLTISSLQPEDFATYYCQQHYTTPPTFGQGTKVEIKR
Output: 0.000161

Task: Let us now turn to antibody 10F4-2C6 (antibody, human IgG1, kappa, V domains shown) VH: EVQLVESGGGLVQPGGSLRLSCAASGFNFGGFDMSWVRQAPGKGLEWVSGIKQYKGYTSYADSVKGRFTISRDNSKNTLYLQMNSLRAEDTAVYYCAREYSDVVDYVSVRTPLDYWGQGTLVTVSS VL: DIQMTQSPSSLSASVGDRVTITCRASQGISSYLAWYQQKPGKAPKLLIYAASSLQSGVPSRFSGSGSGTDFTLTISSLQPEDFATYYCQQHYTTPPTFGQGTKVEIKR
Output: 8.36e-05

Task: Also antibody 1F3-1H3 (antibody, human IgG1, kappa, V domains shown) VH: EVQLVESGGGLVQPGGSLRLSCAASGFNFYNYGMSWVRQAPGKGLEWVSGIKPHSDVAHYADSVKGRFTISRDNSKNTLYLQMNSLRAEDTAVYYCARAELLAFDVYTASDYWGQGTLVTVSS VL: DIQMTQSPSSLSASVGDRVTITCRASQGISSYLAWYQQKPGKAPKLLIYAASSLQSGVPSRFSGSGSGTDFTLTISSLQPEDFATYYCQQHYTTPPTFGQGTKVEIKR , if possible.
Output: 0.00105
